Form field: Drug metabolism (one value per entry).
Experiment: Prodrug conversion in Beagle dog liver assessed as nucleotide triphosphate level at 5 mg/kg, po administered as single dose measured after 4 hrs by LC-MS/MS analysis
Assay type: ADME, organism-based, Canis lupus familiaris
Details: in vivo
recordedMetric: Drug metabolism (µM)

CC(C)OC(=O)[C@H](C)N[P@@](=O)(OC[C@H]1O[C@@H](n2ccc(=O)[nH]c2=O)[C@](Cl)(Br)[C@@H]1O)Oc1ccccc1 :: 0.143
CC(C)OC(=O)C(C)(C)NP(=O)(OC[C@H]1O[C@@H](n2ccc(=O)[nH]c2=O)[C@](Cl)(Br)[C@@H]1O)Oc1ccccc1 (some centres undefined) :: 0.713
CCOC(=O)C(C)(C)N[P@@](=O)(OC[C@H]1O[C@@H](n2ccc(=O)[nH]c2=O)[C@](Cl)(Br)[C@@H]1O)Oc1ccccc1 :: 7.21
CCOC(=O)C(C)(C)N[P@](=O)(OC[C@H]1O[C@@H](n2ccc(=O)[nH]c2=O)[C@@](F)(Br)[C@@H]1O)Oc1ccccc1 :: 43.3

###

Experiment: Prodrug conversion in Beagle dog liver assessed as nucleotide triphosphate level at 5 mg/kg, po administered as single dose measured after 4 hrs by LC-MS/MS analysis
Type: ADME, organism-based, Canis lupus familiaris
Settings: in vivo
Form field: Drug metabolism (one value per entry).
recordedMetric: Drug metabolism (µM)

CC(C)OC(=O)[C@H](C)N[P@](=O)(OC[C@H]1O[C@@H](n2ccc(=O)[nH]c2=O)[C@@](F)(Br)[C@@H]1O)Oc1ccccc1 :: 11.5
CCOC(=O)C(C)(C)N[P@](=O)(OC[C@H]1O[C@@H](n2ccc(=O)[nH]c2=O)[C@](Cl)(Br)[C@@H]1O)Oc1ccccc1 :: 8.83
CC(C)OC(=O)[C@H](C)N[P@](=O)(OC[C@H]1O[C@@H](n2ccc(=O)[nH]c2=O)[C@](Cl)(Br)[C@@H]1O)Oc1ccccc1 :: 0.088

###

Experiment: Unbound drug level in human plasma
Assay type: ADME, cell-free
Assign labels as follows, please: satisfied for fraction unbound below 0.3; not satisfied for fraction unbound equal to or exceeding 0.3.

CCOC(=O)C(C)(C)N[P@@](=O)(OC[C@H]1O[C@@H](n2ccc(=O)[nH]c2=O)[C@](Cl)(Br)[C@@H]1O)Oc1ccccc1 :: not satisfied
CC(C)OC(=O)[C@H](C)N[P@](=O)(OC[C@H]1O[C@@H](n2ccc(=O)[nH]c2=O)[C@](Cl)(Br)[C@@H]1O)Oc1ccccc1 :: satisfied
CCOC(=O)C(C)(C)N[P@](=O)(OC[C@H]1O[C@@H](n2ccc(=O)[nH]c2=O)[C@](Cl)(Br)[C@@H]1O)Oc1ccccc1 :: satisfied
CC(C)OC(=O)C(C)(C)NP(=O)(OC[C@H]1O[C@@H](n2ccc(=O)[nH]c2=O)[C@](Cl)(Br)[C@@H]1O)Oc1ccccc1 (stereo partly specified) :: satisfied
CC(C)OC(=O)[C@H](C)N[P@](=O)(OC[C@H]1O[C@@H](n2ccc(=O)[nH]c2=O)[C@@](F)(Br)[C@@H]1O)Oc1ccccc1 :: not satisfied
CCOC(=O)C(C)(C)N[P@](=O)(OC[C@H]1O[C@@H](n2ccc(=O)[nH]c2=O)[C@@](F)(Br)[C@@H]1O)Oc1ccccc1 :: not satisfied

###

Tested on: Hepatitis C virus
Test: Antiviral activity against HCV genotype 3a expressing wild type NS5B infected in human HuH7 replicon cells assessed as inhibition of viral replication after 4 days by luciferase reporter gene based assay
Type: functional, organism-based, Hepacivirus hominis
Conditions: subtype 3a, Huh-7, 96 h
pEC50: −log10 of the molar value.
Form field: pEC50 (one value per entry).
recordedMetric: pEC50

CC(C)OC(=O)[C@H](C)N[P@](=O)(OC[C@H]1O[C@@H](n2ccc(=O)[nH]c2=O)[C@@](F)(Br)[C@@H]1O)Oc1ccccc1 :: 7.90
CC(C)OC(=O)[C@H](C)N[P@](=O)(OC[C@H]1O[C@@H](n2ccc(=O)[nH]c2=O)[C@](Cl)(Br)[C@@H]1O)Oc1ccccc1 :: 7.50
CC(C)OC(=O)[C@H](C)N[P@](=O)(OC[C@H]1O[C@@H](n2ccc(=O)[nH]c2=O)[C@](C)(F)[C@@H]1O)Oc1ccccc1 [SOFOSBUVIR] :: 7.12

###

Test system: Hepatitis C virus
Experiment: Antiviral activity against HCV genotype 3a expressing NS5B S282T mutant infected in human HuH7 replicon cells assessed as inhibition of viral replication after 4 days by luciferase reporter gene based assay
Assay type: functional, organism-based, Hepacivirus hominis
Conditions: subtype 3a, Huh-7, 96 h
pEC50: −log10 of the molar value.
Form field: pEC50 (one value per entry).
recordedMetric: pEC50

CC(C)OC(=O)[C@H](C)N[P@](=O)(OC[C@H]1O[C@@H](n2ccc(=O)[nH]c2=O)[C@](C)(F)[C@@H]1O)Oc1ccccc1 [SOFOSBUVIR] :: 6.48
CC(C)OC(=O)[C@H](C)N[P@](=O)(OC[C@H]1O[C@@H](n2ccc(=O)[nH]c2=O)[C@@](F)(Br)[C@@H]1O)Oc1ccccc1 :: 7.12
CC(C)OC(=O)[C@H](C)N[P@](=O)(OC[C@H]1O[C@@H](n2ccc(=O)[nH]c2=O)[C@](Cl)(Br)[C@@H]1O)Oc1ccccc1 :: 6.85

###

Assay: Prodrug conversion in human primary hepatocytes assessed as increase in nucleotide triphosphate level at 100 uM incubated for 4 hrs followed by compound wash-out for 20 hrs and measured following 4 hrs incubation period by LC-MS/MS analysis relative to sofosbuvir
Type: ADME, cell-based, Hepatocyte
Form field: fold change (FC) (one value per entry).
recordedMetric: fold change (FC)

CCOC(=O)C(C)(C)N[P@](=O)(OC[C@H]1O[C@@H](n2ccc(=O)[nH]c2=O)[C@](Cl)(Br)[C@@H]1O)Oc1ccccc1 :: 30 to 40
CCOC(=O)C(C)(C)N[P@](=O)(OC[C@H]1O[C@@H](n2ccc(=O)[nH]c2=O)[C@@](F)(Br)[C@@H]1O)Oc1ccccc1 :: 30 to 40

###

Form field: CC50 (one value per entry).
Assay: Cytotoxicity against human HuH7 cells assessed as reduction in cell viability
Format: cell-based, Huh-7
Conditions: read-out: TD50 (the source's name)
recordedMetric: CC50

CC(C)OC(=O)[C@H](C)N[P@](=O)(OC[C@H]1O[C@@H](n2ccc(=O)[nH]c2=O)[C@@](F)(Cl)[C@@H]1O)Oc1ccccc1 :: 11 µM
CC(C)OC(=O)[C@H](C)N[P@](=O)(OC[C@H]1O[C@@H](n2ccc(=O)[nH]c2=O)[C@](C)(Cl)[C@@H]1O)Oc1ccccc1 :: > 100 µM
CC(C)OC(=O)[C@H](C)N[P@](=O)(OC[C@H]1O[C@@H](n2ccc(=O)[nH]c2=O)C(Br)(Br)[C@@H]1O)Oc1ccccc1 :: > 100 µM
CC(C)OC(=O)[C@H](C)N[P@](=O)(OC[C@H]1O[C@@H](n2ccc(=O)[nH]c2=O)[C@@](C)(F)[C@@H]1O)Oc1ccccc1 :: > 32 µM
CC(C)OC(=O)[C@H](C)N[P@](=O)(OC[C@H]1O[C@@H](n2ccc(=O)[nH]c2=O)C(Cl)(Cl)[C@@H]1O)Oc1ccccc1 :: > 100 µM
CC(C)OC(=O)[C@H](C)N[P@](=O)(OC[C@H]1O[C@@H](n2ccc(=O)[nH]c2=O)[C@@](F)(Br)[C@@H]1O)Oc1ccccc1 :: > 100 µM

###

Test system: Hepatitis C virus
Assay: Antiviral activity against HCV genotype 2a expressing wild type NS5B infected in human HuH7 replicon cells assessed as inhibition of viral replication after 4 days by luciferase reporter gene based assay
Assay type: functional, organism-based, Hepacivirus hominis
Conditions: subtype 2a, Huh-7, 96 h
recordedMetric: EC50

CC(C)OC(=O)[C@H](C)N[P@](=O)(OC[C@H]1O[C@@H](n2ccc(=O)[nH]c2=O)[C@](Cl)(Br)[C@@H]1O)Oc1ccccc1 :: 188 nM
CC(C)OC(=O)[C@H](C)N[P@](=O)(OC[C@H]1O[C@@H](n2ccc(=O)[nH]c2=O)[C@](C)(F)[C@@H]1O)Oc1ccccc1 [SOFOSBUVIR] :: 681 nM
CC(C)OC(=O)[C@H](C)N[P@](=O)(OC[C@H]1O[C@@H](n2ccc(=O)[nH]c2=O)[C@@](F)(Br)[C@@H]1O)Oc1ccccc1 :: 189 nM

###

Assay: Prodrug conversion in Beagle dog liver assessed as increase in nucleotide triphosphate level at 5 mg/kg, po co-dosed with 5 mg/kg sofosbuvir measured after 4 hrs by LC-MS/MS analysis relative to sofosbuvir
Type: ADME, organism-based, Canis lupus familiaris
Conditions: in vivo
recordedMetric: fold change (FC)

CCOC(=O)C(C)(C)N[P@](=O)(OC[C@H]1O[C@@H](n2ccc(=O)[nH]c2=O)[C@@](F)(Br)[C@@H]1O)Oc1ccccc1 :: 5 to 6

###

Form field: fraction unbound (one value per entry).
Assay: Unbound drug level in dog plasma
Type: ADME, cell-free, Canis lupus familiaris
recordedMetric: fraction unbound

CCOC(=O)C(C)(C)N[P@](=O)(OC[C@H]1O[C@@H](n2ccc(=O)[nH]c2=O)[C@@](F)(Br)[C@@H]1O)Oc1ccccc1 :: 0.317
CCOC(=O)C(C)(C)N[P@](=O)(OC[C@H]1O[C@@H](n2ccc(=O)[nH]c2=O)[C@](Cl)(Br)[C@@H]1O)Oc1ccccc1 :: 0.133
CC(C)OC(=O)[C@H](C)N[P@](=O)(OC[C@H]1O[C@@H](n2ccc(=O)[nH]c2=O)[C@](Cl)(Br)[C@@H]1O)Oc1ccccc1 :: 0.213
CC(C)OC(=O)[C@H](C)N[P@](=O)(OC[C@H]1O[C@@H](n2ccc(=O)[nH]c2=O)[C@@](F)(Br)[C@@H]1O)Oc1ccccc1 :: 0.367

Attribution: ChEMBL document CHEMBL4609978
